Tested on: DLD1
assay-info: cell viability (CellTiter-Glo) relative to plate median (fraction of plate median); higher = more viable cells
cond: 5 µM; treatment time 24 h; reporter: 7TFP
endpoint: cell viability
Please give only the number in your answer, with no unit.

# value lookup — system DLD1, readout cell viability, item Cn1c(=O)c2nc[nH]c2n(C)c1=O 0.996

What reported cell viability corresponds to Cc1ccc(-c2cc(C(F)(F)F)nn2-c2ccc(S(N)(=O)=O)cc2)cc1 on DLD1? 0.972

Checklist item: cell viability tested on DLD1, entry CO/N=C(\C(=O)N[C@@H]1C(=O)N2C(C(=O)O)=C(COC(C)=O)CS[C@H]12)c1csc(N)n1 , value? 1.03

Lab note: need cell viability for CCCC(CCC)C(=O)O on DLD1, anyone have it? 1.03

Any idea what cell viability came out for NS(=O)(=O)c1cc2c(cc1C(F)(F)F)NC(Cc1ccccc1)NS2(=O)=O (centres undefined) on DLD1? 0.992

# get_value(readout= cell viability, system= DLD1) for O=C1NC(Cc2ccc(O)cc2)C(=O)N2CCCC12 (centres undefined) [Cyclo(tyrosylprolyl)] 0.935

# returns recorded cell viability (system: DLD1) for CC(C)OC(=O)C(C)(C)Oc1ccc(C(=O)c2ccc(Cl)cc2)cc1 1.08

Any idea what cell viability came out for CN1Cc2c(N)cccc2C(c2ccccc2)C1 (centres undefined) on DLD1? 1.05

Give cell viability (DLD1) of the following compound: CC1(C)S[C@@H]2[C@H](NC(=O)Cc3ccccc3)C(=O)N2[C@H]1C(=O)O 0.914

Give DLD1 cell viability for FC(F)(F)c1ccccc1-n1ccnc1 1.02

Identify the measured cell viability of C=CC1=C(C)c2cc3[nH]c(cc4nc(cc5[nH]c(cc1n2)c(C)c5CCC(=O)O)C(CCC(=O)O)=C4C)c(C)c3C=C for DLD1. 1

Lab note: need cell viability with DLD1 for entry O=C(O)c1cc(=O)c2c(Cl)cc(Cl)cc2[nH]1 , please look it up. 0.944

For DLD1, provide cell viability of Nc1ccc(S(=O)(=O)Nc2nccs2)cc1 please. 1.01

Can you look up cell viability on DLD1 for CN1CCN(CC(=O)N2c3ccccc3C(=O)Nc3cccnc32)CC1 ? 0.944

# query: cell viability | item C/C=C/C=C/[C@@H]1O[C@](O)([C@H](CC)C(=O)NC/C=C/C=C(\C)[C@@H](OC)[C@@H](C)[C@@H]2O[C@H](/C=C/C=C/C=C(\C)C(=O)c3c(O)ccn(C)c3=O)[C@H](O)[C@@H]2O)C[C@H](O)C1(C)C (single isomer, unassigned; isomere) [Heneicomycin (Isomere)] | system: DLD1 0.948

Provide the documented cell viability with DLD1 as the system for COc1ccc2c(c1)OCC(Cc1ccc(OC)c(O)c1)C2=O (centres undefined) 0.937

Requested read-out cell viability, target or system DLD1, entry CC1=C(/C=C/C(C)=C/C=C/C(C)=C/C=C/C=C(C)/C=C/C=C(C)/C=C/C2=C(C)C(=O)[C@@H](O)CC2(C)C)C(C)(C)C[C@H](O)C1=O 1.05

GET /values?readout=cell viability&system=DLD1&item= O=C(O)c1ccccc1 1.06

Please tell me: cell viability of C=C(CC[C@@H](C(=O)O)[C@H]1CC[C@@]2(C)C3=C(CC[C@]12C)[C@@]1(C)CC[C@H](O)C(C)(C)[C@@H]1CC3)C(C)C , system DLD1? 0.994

Recall the recorded cell viability for CC(=O)OCC(=O)[C@@]12OC(C)(C)O[C@@H]1C[C@H]1[C@@H]3C[C@H](F)C4=CC(=O)C=C[C@]4(C)[C@@]3(F)[C@@H](O)C[C@@]12C with DLD1 and state it. 1.01

Give cell viability (DLD1) of the following compound: O=C(O)CN(CCN(CC(=O)O)CC(=O)O)CC(=O)O.[Na+].[Na+].[Na+] 0.914

Reported cell viability for DLD1, given CC(=O)c1c2c(c(C)n1-c1ccccc1C(=O)O)C(=O)c1c(O)cccc1C2=O ? 1.02

Write down the reported cell viability of Cc1cc(NC(=O)C2=C(O)c3ccccc3S(=O)(=O)N2C)no1 , test system: DLD1. 1.04

Kindly state the measured cell viability obtained for COc1cc(O)c2c(c1)C(=O)c1cc3c(c(OC)c1C2=O)[C@@H]1CCO[C@@H]1O3 with DLD1. 1.24

Reported cell viability for DLD1, given C[C@]12CCC[C@H](O1)c1c(cc3c(c1O)C(=O)c1c(O)cc(O)cc1C3=O)O2 [Averufin (Isoform B, Compound ID 7395)] ? 1.09

Write down the reported cell viability of COc1cc(C(=O)NCCCCCC(=O)O)cc(OC)c1OC , test system: DLD1. 0.981

Find the measured cell viability: item COc1c2ccoc2nc2c(OC)c(OCC(O)C(C)(C)O)ccc12 (centres undefined) , target or system DLD1. 1.02

Identify the measured cell viability of COC1=CC(=O)C[C@@H](C)[C@]12Oc1c(Cl)c(OC)cc(OC)c1C2=O for DLD1. 0.937

Report cell viability for CN(C)c1ccc(C(=C2C=CC(=[N+](C)C)C=C2)c2ccc(N(C)C)cc2)cc1 tested on DLD1. 0.703

Notebook entry, DLD1 assay: cell viability of CC(C)c1cccc(=O)c(O)c1 = ? 1.11

// fetch DLD1 cell viability for CC(C)NCC(O)c1cc(O)cc(O)c1 (centres undefined) 0.999

Under DLD1: cell viability value of O=C(COc1ccc(Cl)cc1)N1CCN(Cc2ccc3c(c2)OCO3)CC1 ? 0.976

Reported cell viability for DLD1, given CC1COc2c(N3CCN(C)CC3)c(F)cc3c(=O)c(C(=O)O)cn1c23 (centres undefined) ? 0.995

API: value(readout= cell viability, system= DLD1, query= CC(=O)Oc1c(-c2ccccc2)oc2c(CC=C(C)C)c3c(c(OC(C)=O)c2c1=O)C=CC(C)(C)O3 ) 1.05

What value of cell viability on DLD1 does Cc1cc2nc3c(=O)[nH]c(=O)nc-3n(C[C@H](O)[C@H](O)[C@H](O)CO)c2cc1C have? 0.984

Please state recorded cell viability (tested on DLD1) of Cc1cc(O)c(C)c(O)c1C(=O)O 1

Observed cell viability on DLD1 for COC(=O)C(N)CS (centres undefined) , please. 0.972

Could you share what cell viability was measured for CN(C)CC/C=C1/c2ccccc2Sc2ccc(Cl)cc21 , tested on DLD1? 0.835

Give the reported cell viability for O=C(O)c1cc(=O)c2cccc(O)c2[nH]1 (system: DLD1). 0.932
